System: SK-MEL-28
Assay: NCI tumour cell line growth inhibition, 48 h
Calls of active or inactive are those of the source. No stated cut-off is given here; in the data, active = GI50 up to about 1.1 µM and inactive = higher.
measured_quantity: GI50

>>> assay_result("COc1cc(/C=C2\\Cc3ccccc3C2=O)cc(OC)c1OC")
"> 100 µM (inactive)"
>>> assay_result("O=Cc1ccccc1B(O)O")
"68.4 µM (inactive)"
>>> assay_result("Cn1c(=O)c2nc(CCCc3ccc([N+](=O)[O-])cc3)[nH]c2n(C)c1=O")
"> 100 µM (inactive)"
>>> assay_result("COc1cc2c(cc1OC)C(C1CC1)ON(C)CC2 (stereo unspecified)")
"> 100 µM (inactive)"
>>> assay_result("Cc1no[n+]([O-])c1/C=N/NS(=O)(=O)c1ccccc1")
"> 100 µM (inactive)"
>>> assay_result("COc1cc(CNc2nc3ccccc3nc2-c2cccs2)cc(OC)c1OC")
"32.3 µM (inactive)"

---

Tested on: TK-10
Assay: NCI tumour cell line growth inhibition, 48 h
Activity calls are given as the source filed them. No stated cut-off is given here; in the data, active = GI50 up to about 1.1 µM and inactive = higher.
measured_quantity: GI50

>>> assay_result("COc1ccc2c(c1)CCN1CCc3cc(OC)c(OC)cc3CC21 (stereo not drawn)")
"> 100 µM (inactive)"
>>> assay_result("CN(C)Cc1cc(C(=O)/C=C/c2ccc(Br)cc2)cc(CN(C)C)c1O")
"13 µM (inactive)"
>>> assay_result("CC(SC(=S)N(C)C)C(=O)Nc1nnc(-c2ccc(Cl)cc2)o1 (stereo not drawn)")
"80.2 µM (inactive)"
>>> assay_result("Cc1ccc(C2CC(=O)CC(c3ccc(C)cc3)C23C(=O)NC(=O)NC3=O)cc1 (stereo not drawn)")
"> 100 µM (inactive)"
>>> assay_result("CC(C)NC(=O)OCCN=C1c2ccccc2CCc2ccccc21")
"26.1 µM (inactive)"
>>> assay_result("COCNC(=NC#N)NCOC")
"> 100 µM (inactive)"
>>> assay_result("CN1CCc2[nH]nc(-c3n[nH]c4c3CN(C)CC4)c2C1")
"> 100 µM (inactive)"
>>> assay_result("COc1cc(/C=C\\c2ccc(Cl)cc2)cc(OC)c1OC")
"38.9 µM (inactive)"
>>> assay_result("O=Cc1ccccc1B(O)O")
"55.6 µM (inactive)"
>>> assay_result("CN(C)/C=[N+]1/[C@@H](Cc2ccccc2)C(=O)O[B-]1(F)c1ccccc1 (stereo partly drawn)")
"> 100 µM (inactive)"
>>> assay_result("Cc1nn(C(=O)c2ccccc2O)c2c1C(c1ccc(O)cc1)SC(=N)N2 (stereo not drawn)")
"> 2.52 µM (inactive)"
>>> assay_result("O=S(=O)(c1cc(Cl)ccc1Cl)n1ccnc1")
"24.1 µM (inactive)"
>>> assay_result("O=C1Nc2cc(F)ccc2C1=O")
"> 100 µM (inactive)"
>>> assay_result("O=C(O)c1c[nH]c2c(Sc3ccccc3)nccc2c1=O")
"> 100 µM (inactive)"
>>> assay_result("O=C(c1ccc(Cl)c(Cl)c1)N(C(=S)OC12CC3CC(CC(C3)C1)C2)c1ccccc1")
"66.8 µM (inactive)"
>>> assay_result("CCn1nc(C)c2c1C(=O)NC(C)C(=O)N2 (stereo not drawn)")
"> 100 µM (inactive)"
>>> assay_result("CCCCCCCCCCCCCCCCCCCCCC(=O)Nc1ccn(C2OC(CO)C(O)C2O)c(=O)n1 (stereo not drawn)")
"> 100 µM (inactive)"
>>> assay_result("C[N+]1(C)[C@@H]2CC[C@H]1C[C@@H](OC(=O)C(CO)c1ccccc1)C2 (stereo partly drawn) [ATROPINE METHYLBROMIDE]")
"> 100 µM (inactive)"
>>> assay_result("Cc1cc(NCCCCCCCCNc2cc(C)nc3cc(N(C)C)ccc23)c2ccc(N(C)C)cc2n1")
"> 10 µM (inactive)"
>>> assay_result("O=NN(CCCl)C(=O)N[C@H]1CC[C@H](CC(=O)O)CC1")
"> 100 µM (inactive)"
>>> assay_result("[O-][S+]1Nc2c(Cl)cc(Cl)c(Cl)c2S1 (stereo not drawn)")
"> 100 µM (inactive)"
>>> assay_result("CCN(CC)C(=S)SS(=O)(=O)c1ccccc1[N+](=O)[O-]")
"31.9 µM (inactive)"
>>> assay_result("N#Cc1nc(-c2cccnc2)oc1N")
"> 100 µM (inactive)"
